These entries and their values trace back to patent US9963462B2.

tested.system: UniProt:P35270
metric: pIC50
Recall that pIC50 is obtained by taking minus log10 of the concentration measured in molar.

Consider the reported pIC50 for these compounds:
Cc1c(C(=O)N2CCN(c3ncc(-c4cccc(C#N)c4)o3)CC2)cnn1-c1nn2cccc2c(=O)[nH]1: 9.00
Cc1c(C(=O)N2C[C@H]3CCC[C@@H](C2)[C@H]3CC(F)(F)F)cnn1-c1nn2cccc2c(=O)[nH]1: 9.00
Cc1[nH]c2ccccc2c1C1CCN(C(=O)c2cnn(-c3nc4c(c(=O)[nH]3)CCC4)c2C)CC1: 8.40
Cc1c(C(=O)N2CCN(S(=O)(=O)c3cc(Cl)sc3Cl)CC2)cnn1-c1nn2cccc2c(=O)[nH]1: 9.00
Cc1c(C(=O)N2CCC(C3CC3)CC2)cnn1-c1nc2sccc2c(=O)[nH]1: 8.70

Ask: Observed pIC50 on UniProt:P35270 for CCC1(C#N)CCN(C(=O)c2nnn(-c3nn4cccc4c(=O)[nH]3)c2C)CC1 , please.
Reply: 9.00

Ask: Observed pIC50 on UniProt:P35270 for Cc1c(C(=O)N2CCC3(CCCN3Cc3ccccc3)C2)cnn1-c1nc2c(c(=O)[nH]1)CCC2 (centres unmarked) , please.
Reply: 8.22

Ask: Observed pIC50 on UniProt:P35270 for Cc1c(C(=O)N2CC(CN)C2)cnn1-c1nc2ccsc2c(=O)[nH]1 , please.
Reply: 7.00

----------
Reported IC50, SNAP-hSPR (sepiapterin reductase, SPR) (Homo sapiens, UniProt P35270).
Please state the figure in nM; there is no need to write the unit.

Consider the reported IC50 for these compounds:
Cc1c(C(=O)N2CCN(c3ccc(F)cc3F)CC2)cnn1-c1nc2c(c(=O)[nH]1)CCC2: 3
Cc1c(C(=O)N2CC(N3CCC(F)(F)CC3)C2)cnn1-c1nn2cccc2c(=O)[nH]1: 2
Cc1c(C(=O)N2CCNCC2)cnn1-c1nc2c(c(=O)[nH]1)CCC2: 30
Cc1cc(=O)[nH]c(-c2c(C)nn(CCC(=O)N3CCc4ccccc4C3)c2C)n1: 2900
Cc1c(C(=O)N2CCC(S(=O)(=O)c3ccccc3)CC2)cnn1-c1nn2cccc2c(=O)[nH]1: 1
Cc1nn(-c2nc3ccsc3c(=O)[nH]2)c(C)c1C(=O)N1CCC(C(F)(F)F)CC1: 5

Ask: Observed IC50 on SNAP-hSPR (sepiapterin reductase, SPR) (Homo sapiens, UniProt P35270) for Cc1cc(=O)[nH]c(-n2ncc(C(=O)N3CCc4cn[nH]c4C3)c2C)n1 , please.
Sequence (P35270 whole entry): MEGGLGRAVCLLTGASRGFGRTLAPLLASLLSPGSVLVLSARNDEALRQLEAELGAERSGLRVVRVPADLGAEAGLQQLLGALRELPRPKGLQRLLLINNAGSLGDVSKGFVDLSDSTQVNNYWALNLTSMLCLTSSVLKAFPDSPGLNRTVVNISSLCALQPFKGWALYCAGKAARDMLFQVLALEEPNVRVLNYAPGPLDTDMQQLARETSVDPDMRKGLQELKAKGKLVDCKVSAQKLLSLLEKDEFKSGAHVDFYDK
Reply: 10

Ask: Observed IC50 on SNAP-hSPR (sepiapterin reductase, SPR) (Homo sapiens, UniProt P35270) for Cc1cc(=O)[nH]c(-n2ncc(C(=O)N3CCc4ccccc4C3)c2C(F)F)n1 , please.
Reply: 10

Ask: Observed IC50 on SNAP-hSPR (sepiapterin reductase, SPR) (Homo sapiens, UniProt P35270) for Cc1cc(=O)[nH]c(-n2ncc(C(=O)N3C4CCC3CC4)c2C)n1 , please.
Reply: 10

----------
Listed here are compounds together with their documented pIC50.
tested.system: UniProt P35270
Recall that pIC50 is obtained by taking minus log10 of the concentration measured in molar.

Consider the reported pIC50 for these compounds:
CCC(=O)C1CCN(C(=O)c2cnn(-c3nc4c(c(=O)[nH]3)CCC4)c2C)CC1: 9.00
Cc1c(C(=O)N2C3CCC2CN(c2nccs2)C3)cnn1-c1nn2cccc2c(=O)[nH]1: 9.00
Cc1c(C(=O)N2CCCC3(CC3)C2)cnn1-c1nn2cccc2c(=O)[nH]1: 9.00
Cc1c(C(=O)N2CCN(C(=O)c3ccco3)CC2)cnn1-c1nn2cccc2c(=O)[nH]1: 8.22

Ask: Data request, read-out pIC50, for Cc1cc(=O)[nH]c(-n2cc(C(=O)N3CCc4ccccc4C3)cn2)n1
Reply: 7.70

Ask: Data request, read-out pIC50, for Cc1nc(-n2ncc(C(=O)N3CCc4ccccc4C3)c2C)[nH]c(=O)c1Cl
Reply: 8.10

Ask: Data request, read-out pIC50, for Cc1cc(=O)[nH]c(-n2nc(C(=O)N3CCc4ccccc4C3)cc2C)n1
Reply: 7.30

Ask: Data request, read-out pIC50, for Cc1nc(-n2ncc(C(=O)N3CCc4ccccc4C3)c2C)[nH]c(=O)c1C
Reply: 8.00

Ask: Data request, read-out pIC50, for CCC(C#N)C1CCN(C(=O)c2cnn(-c3nn4cccc4c(=O)[nH]3)c2C)CC1 (stereo not drawn)
Reply: 9.00
